Biological target: T1, biotinylated recombinant human IL-17A (rhIL-17, R&D Systems #317-ILB) (human, UniProt Q16552 24-155, biotinylated)
T1 construct: IL-17A, human, recombinant; also called Biotinylated IL-17A; source: bought: R&D Systems
T1 sequence (Q16552 24-155): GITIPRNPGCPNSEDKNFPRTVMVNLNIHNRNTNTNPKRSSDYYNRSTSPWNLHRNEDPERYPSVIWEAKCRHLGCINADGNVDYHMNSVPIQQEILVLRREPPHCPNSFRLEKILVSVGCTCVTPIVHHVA
Settings: both partners purified
Where no end group is shown, it is not given here.
readout.type: pIC50
The value called pIC50 is obtained by taking minus log10 of the concentration in mol/L.

Examples from the recorded data:
binder: Ac-IVVTMPADLWDWIRA (not fully specified (C-terminus), analogue of peptide 1 with lysine to arginine at position 14; parent of the alanine scan; made on Rink resin; a C-terminal amide is surmised; source: synthetic peptide) [peptide 2]
pIC50: 7.10
//
binder: Ac-IVVTMAADLWDWIRA (not fully specified (C-terminus), analogue of peptide 2, A at position 6; made on Rink resin; a C-terminal amide is surmised; source: synthetic peptide) [peptide 12]
pIC50: 5.58

Next:
Prompt line: Requested field: pIC50. Item: Ac-IYVTMPADLWDWIRA (not fully specified (C-terminus), analogue of peptide 2, Y at position 2; made on Rink resin; a C-terminal amide is surmised; source: synthetic peptide) [peptide 23]
Response line: 7.19
